- Tested on: Pseudaletia separate Walker
- PROTOCOL_DESCRIPTION: Insecticidal activities to armyworm, leaf dipping and feeding
- Format: in vivo
- CONDITION_LABEL: in vivo
REPORTED_ENDPOINT: Pseudaletia separate Walker Mortality (%) 500 ppm

>  <MOLECULE>
O=[N+]([O-])C(=Cc1cc(Br)co1)C1=NCCCN1Cc1ccc(Cl)nc1

>  <VALUE_UNIT>
%

>  <QUANTITATIVE_READOUT>
100

$$$$
>  <MOLECULE>
CC(=C(C1=NCCN1C(C)c1ccc(Cl)nc1)[N+](=O)[O-])c1ccc([N+](=O)[O-])o1 (racemic)

>  <VALUE_UNIT>
%

>  <QUANTITATIVE_READOUT>
45

$$$$
>  <MOLECULE>
CCc1ccc(C=C(C2=NCCN2Cc2cnc(Cl)s2)[N+](=O)[O-])o1

>  <VALUE_UNIT>
%

>  <QUANTITATIVE_READOUT>
100

$$$$
>  <MOLECULE>
O=[N+]([O-])C(=Cc1cc(Cl)co1)C1=NCCN1Cc1ccc(Cl)nc1

>  <VALUE_UNIT>
%

>  <QUANTITATIVE_READOUT>
100

$$$$
>  <MOLECULE>
C[N+]1=C(C(=Cc2ccc(CO)o2)[N+](=O)[O-])N(Cc2ccc(Cl)nc2)CC1.[Cl-]

>  <VALUE_UNIT>
%

>  <QUANTITATIVE_READOUT>
100

$$$$
>  <MOLECULE>
CC(=C(C1=NCCN1Cc1ccc(Cl)nc1)[N+](=O)[O-])c1ccc([N+](=O)[O-])s1

>  <VALUE_UNIT>
%

>  <QUANTITATIVE_READOUT>
77

$$$$
>  <MOLECULE>
N#CC(=Cc1ccc(CO)o1)C1=NCCN1Cc1ccc(Cl)nc1

>  <VALUE_UNIT>
%

>  <QUANTITATIVE_READOUT>
100

$$$$
>  <MOLECULE>
O=[N+]([O-])C(=Cc1ccc([N+](=O)[O-])o1)C1=NCCN1Cc1ccccc1

>  <VALUE_UNIT>
%

>  <QUANTITATIVE_READOUT>
98

$$$$
>  <MOLECULE>
C[N+]1=C(C(=Cc2ccc(Br)s2)[N+](=O)[O-])N(Cc2ccc(Cl)nc2)CC1.[Cl-]

>  <VALUE_UNIT>
%

>  <QUANTITATIVE_READOUT>
100

$$$$
>  <MOLECULE>
C[N+]1=C(C(=Cc2ccc(Br)o2)[N+](=O)[O-])N(Cc2ccc(Cl)nc2)CC1.[Cl-]

>  <VALUE_UNIT>
%

>  <QUANTITATIVE_READOUT>
100

$$$$
>  <MOLECULE>
O=[N+]([O-])C(=Cc1ccc([N+](=O)[O-])o1)C1=NCCCN1Cc1ccc(Cl)nc1

>  <VALUE_UNIT>
%

>  <QUANTITATIVE_READOUT>
100

$$$$
>  <MOLECULE>
O=[N+]([O-])C(=Cc1cc(Cl)c(Cl)o1)C1=NCCN1Cc1cnc(Cl)s1

>  <VALUE_UNIT>
%

>  <QUANTITATIVE_READOUT>
100

$$$$
>  <MOLECULE>
O=[N+]([O-])C(=Cc1cc(Br)cs1)C1=NCCN1Cc1cnc(Cl)s1

>  <VALUE_UNIT>
%

>  <QUANTITATIVE_READOUT>
97

$$$$
>  <MOLECULE>
Cc1ccc(C=C(C2=NCCN2Cc2ccc(Cl)nc2)[N+](=O)[O-])cn1

>  <VALUE_UNIT>
%

>  <QUANTITATIVE_READOUT>
87

$$$$
>  <MOLECULE>
CC(c1ccc(Cl)nc1)N1CCN=C1C(=Cc1ccc(Cl)o1)[N+](=O)[O-] (racemic)

>  <VALUE_UNIT>
%

>  <QUANTITATIVE_READOUT>
98

$$$$
>  <MOLECULE>
Cc1ccc(C=C(C2=NCCN2Cc2ccc(Cl)nc2)[N+](=O)[O-])o1

>  <VALUE_UNIT>
%

>  <QUANTITATIVE_READOUT>
100

$$$$
>  <MOLECULE>
O=[N+]([O-])C(=Cc1ccsc1)C1=NCCCN1Cc1ccc(Cl)nc1

>  <VALUE_UNIT>
%

>  <QUANTITATIVE_READOUT>
100

$$$$
>  <MOLECULE>
O=[N+]([O-])C(=Cc1sc(Br)cc1Br)C1=NCCN1Cc1ccc(Cl)nc1

>  <VALUE_UNIT>
%

>  <QUANTITATIVE_READOUT>
100

$$$$
>  <MOLECULE>
C[N+]1=C(C(=Cc2ccc(CO)s2)[N+](=O)[O-])N(Cc2ccc(Cl)nc2)CC1.[Cl-]

>  <VALUE_UNIT>
%

>  <QUANTITATIVE_READOUT>
100

$$$$
>  <MOLECULE>
Cc1coc(C=C(C2=[N+](C)CCN2Cc2ccc(Cl)nc2)[N+](=O)[O-])c1.[Cl-]

>  <VALUE_UNIT>
%

>  <QUANTITATIVE_READOUT>
100

$$$$
>  <MOLECULE>
CC[N+]1=C(C(=Cc2ccc([N+](=O)[O-])s2)[N+](=O)[O-])N(Cc2ccc(Cl)nc2)CC1.[Cl-]

>  <VALUE_UNIT>
%

>  <QUANTITATIVE_READOUT>
100

$$$$
>  <MOLECULE>
CC(=C(C1=NCCN1Cc1ccc(Cl)nc1)[N+](=O)[O-])c1ccc(C)o1

>  <VALUE_UNIT>
%

>  <QUANTITATIVE_READOUT>
10

$$$$
>  <MOLECULE>
O=[N+]([O-])C(=Cc1oc(Cl)cc1Cl)C1=NCCN1Cc1ccc(Cl)nc1

>  <VALUE_UNIT>
%

>  <QUANTITATIVE_READOUT>
100

$$$$
>  <MOLECULE>
O=[N+]([O-])C(=Cc1cc(Cl)cs1)C1=NCCN1Cc1ccc(Cl)nc1

>  <VALUE_UNIT>
%

>  <QUANTITATIVE_READOUT>
100

$$$$
>  <MOLECULE>
O=[N+]([O-])C(=Cc1cc(Br)c(Br)o1)C1=NCCN1Cc1cnc(Cl)s1

>  <VALUE_UNIT>
%

>  <QUANTITATIVE_READOUT>
100

$$$$
>  <MOLECULE>
O=[N+]([O-])C(=Cc1ccc(CO)s1)C1=NCCN1Cc1ccc(Cl)nc1

>  <VALUE_UNIT>
%

>  <QUANTITATIVE_READOUT>
100

$$$$
>  <MOLECULE>
O=[N+]([O-])C(=Cc1cc(Br)cs1)C1=NCCCN1Cc1ccc(Cl)nc1

>  <VALUE_UNIT>
%

>  <QUANTITATIVE_READOUT>
90

$$$$
>  <MOLECULE>
CC(=C(C1=NCCN1Cc1ccc(Cl)nc1)[N+](=O)[O-])c1ccc([N+](=O)[O-])o1

>  <VALUE_UNIT>
%

>  <QUANTITATIVE_READOUT>
100

$$$$
>  <MOLECULE>
O=[N+]([O-])C(=Cc1cccs1)C1=NCCN1Cc1cnc(Cl)s1

>  <VALUE_UNIT>
%

>  <QUANTITATIVE_READOUT>
100

$$$$
>  <MOLECULE>
O=[N+]([O-])C(=Cc1cc2ccccc2[nH]1)C1=NCCN1Cc1ccc(Cl)nc1

>  <VALUE_UNIT>
%

>  <QUANTITATIVE_READOUT>
95

$$$$
>  <MOLECULE>
C[N+]1=C(C(=Cc2cccs2)[N+](=O)[O-])N(Cc2cnc(Cl)s2)CC1.[Cl-]

>  <VALUE_UNIT>
%

>  <QUANTITATIVE_READOUT>
100

$$$$
>  <MOLECULE>
O=[N+]([O-])C(=Cc1ccc([N+](=O)[O-])s1)C1=NCCN1Cc1ccc(Cl)nc1

>  <VALUE_UNIT>
%

>  <QUANTITATIVE_READOUT>
100

$$$$
